tested on: 501Mel cells (parental); test: Kinase inhibitor library screening, PrestoBlue cell viability, 1 or 10 μM, 72 h; settings: 501Mel Parental, 1μΜ, 72 h
READOUT: cell viability (kinase inhibitor library screening) (%)

COMPOUND_STRUCTURE: Nc1nccc(Oc2ccc(NC(=O)c3c[nH]cc(-c4ccc(F)cc4)c3=O)cc2F)c1Cl
DATA_VALUE: 95.9
//
COMPOUND_STRUCTURE: COc1cc(Nc2ncc3c(n2)-c2ccc(Cl)cc2C(c2c(F)cccc2OC)=NC3)ccc1C(=O)O
DATA_VALUE: 82.2
//
COMPOUND_STRUCTURE: Cc1cn(-c2cc(NC(=O)c3ccc(C)c(Nc4nccc(-c5cccnc5)n4)c3)cc(C(F)(F)F)c2)cn1
DATA_VALUE: 89.8
//
COMPOUND_STRUCTURE: OCCn1cc(-c2cnc3nnn(Cc4ccc5ncccc5c4)c3n2)cn1
DATA_VALUE: 97.4
//
COMPOUND_STRUCTURE: COc1cc(N2CCC(N3CCN(C)CC3)CC2)ccc1Nc1ncc(Cl)c(Nc2ccccc2S(=O)(=O)C(C)C)n1
DATA_VALUE: 103.2
//
COMPOUND_STRUCTURE: C[C@@H]1CN(CC(=O)Nc2ccc3c(c2)Cc2cccc(-c4cc(=O)cc(N5CCOCC5)o4)c2S3)C[C@H](C)O1
DATA_VALUE: 90.0
//
COMPOUND_STRUCTURE: CNC(=O)c1nn(C)c2c1C(C)(C)Cc1cnc(Nc3ccc(N4CCN(C)CC4)cc3)nc1-2
DATA_VALUE: 75.4

----------
Measured cell viability (kinase inhibitor library screening) of individual entries
tested on: 501Mel cells (parental); assay: Kinase inhibitor library screening, PrestoBlue cell viability, 1 or 10 μM, 72 h; details: 501Mel Parental, 1μΜ, 72 h
READOUT: cell viability (kinase inhibitor library screening) (%)

COMPOUND: Cc1cc(CN2CCN(c3c(Br)cnc4nc(-c5ccc(N6CCN(C)CC6)cc5)[nH]c34)CC2)no1
UOM: %
DATA_VALUE: 87.2

COMPOUND: Cc1csc(-c2nnc(Nc3ccc(Oc4ncccc4-c4ccnc(N)n4)cc3)c3ccccc23)c1
UOM: %
DATA_VALUE: 87.5

COMPOUND: Cc1cnc(NC(=O)Nc2cc(Br)c(C)cc2OC[C@@H]2CNCCO2)cn1
UOM: %
DATA_VALUE: 84.2

COMPOUND: O=C(Nc1ccc(OC(F)(F)F)cc1)c1sccc1NCc1ccnc2ccccc12
UOM: %
DATA_VALUE: 100.2

COMPOUND: CCc1cc2c(cc1N1CCC(N3CCOCC3)CC1)C(C)(C)c1[nH]c3cc(C#N)ccc3c1C2=O
UOM: %
DATA_VALUE: 109.6

COMPOUND: CC(C)c1cnn2c(NCc3ccccc3)cc(NCCCCCCN)nc12.Cl [BS-181 HCl]
UOM: %
DATA_VALUE: 97.6

COMPOUND: CN1CCN(C2CCN(C(=O)Nc3cc(Oc4ccc(NC(=O)C5(C(=O)Nc6ccc(F)cc6)CC5)c(F)c4)ccn3)CC2)CC1 [Golvatinib (E7050)]
UOM: %
DATA_VALUE: 96.5

COMPOUND: CCOc1ccn(-c2ccc(F)cc2)c(=O)c1C(=O)Nc1ccc(Oc2ccnc(N)c2Cl)c(F)c1
UOM: %
DATA_VALUE: 88.2

COMPOUND: CC(C)NC[C@@H](C(=O)N1CCN(c2ncnc3c2[C@H](C)C[C@H]3O)CC1)c1ccc(Cl)cc1
UOM: %
DATA_VALUE: 103.4

COMPOUND: Cc1[nH]nc2ccc(-c3cncc(OC[C@@H](N)Cc4ccccc4)c3)cc12
UOM: %
DATA_VALUE: 73.1

COMPOUND: Nc1ncnc2c1c(-c1cnc3[nH]ccc3c1)nn2C1CCCC1 [PP-121, reference compound]
UOM: %
DATA_VALUE: 55.7

COMPOUND: CCCCOc1c(C(=O)c2c(F)cc(C)cc2F)c[nH]c2nncc1-2
UOM: %
DATA_VALUE: 92.4

COMPOUND: N#Cc1c(O)c2c(-c3ccc(-c4ccccc4O)cc3)csc2[nH]c1=O
UOM: %
DATA_VALUE: 99.2

COMPOUND: Cc1nc(N)sc1-c1ccnc(Nc2ccc(N3CCOCC3)cc2)n1
UOM: %
DATA_VALUE: 99.4

COMPOUND: CN(C)c1ccc(-c2nc3ncc(Cl)c(N4CCN(CC(=O)Nc5nccs5)CC4)c3[nH]2)cc1
UOM: %
DATA_VALUE: 93.7

COMPOUND: O=C(O)[C@]1(Cc2cccc(Nc3nccs3)n2)CC[C@@H](Oc2cccc(Cl)c2F)CC1
UOM: %
DATA_VALUE: 94.9
